target-desc: human glucagon receptors (Homo sapiens)
Construct: a region corresponding to Open Reading Frame (ORF) in the cDNA; expressed in transfected cells
Sequence (P47871 26-477): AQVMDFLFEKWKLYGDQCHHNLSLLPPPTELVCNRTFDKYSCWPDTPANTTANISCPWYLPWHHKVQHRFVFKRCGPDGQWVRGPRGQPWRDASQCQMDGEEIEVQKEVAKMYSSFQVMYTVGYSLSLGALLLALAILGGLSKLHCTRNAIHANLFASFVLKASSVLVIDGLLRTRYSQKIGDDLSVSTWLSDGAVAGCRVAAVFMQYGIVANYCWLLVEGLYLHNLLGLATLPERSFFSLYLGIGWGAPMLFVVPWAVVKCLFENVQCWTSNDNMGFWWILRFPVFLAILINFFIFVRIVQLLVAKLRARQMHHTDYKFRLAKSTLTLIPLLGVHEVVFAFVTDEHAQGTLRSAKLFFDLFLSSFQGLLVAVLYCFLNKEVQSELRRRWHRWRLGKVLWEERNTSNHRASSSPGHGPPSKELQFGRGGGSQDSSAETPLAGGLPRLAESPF
experiment-notes: cAMP activity of glucagon derivatives in CHO cell line transfected with human glucagon receptor (LANCE cAMP kit)
Assay type: cell-based
condition-context: cAMP EC50 compared with that of native glucagon; CHO cells with human glucagon receptor
Bridge positions count the residues as written; N and C are the ends. Square brackets hold non-standard residues; d marks the D form. Ends that are not written are not given here. Aib = CC(C)(N)C(=O)O
readout-name: In vitro Activity (Relative Activity of SEQ ID NO: 1, %)
Express it in %; write the number only.

These recorded examples may help you get a feel for the data.
>>> recorded_result("YXQGTFTSDYSKCLDEKRAKEFVQWLMNT (Y[Aib]QGTFTSDYSKCLDEKRAKEFVQWLMNT; bridge 16-20) [SEQ ID NO: 24, glucagon derivative, X = Aib]")
58.0
>>> recorded_result("YXQGTFTSDYSKCLDERRAKDFVQWLMNT (Y[Aib]QGTFTSDYSKCLDERRAKDFVQWLMNT; bridge 16-20) [SEQ ID NO: 29, glucagon derivative, X = Aib]")
61.3
>>> recorded_result("YXQGTFTSDCSKYLDERRAKEFVQWLMNT (Y[Aib]QGTFTSDCSKYLDERRAKEFVQWLMNT; bridge 16-20) [SEQ ID NO: 36, glucagon derivative, X = Aib]")
9.9

Form: substance = YXQGTFCSDYSKYLDERRAKEFVQWLMNT (Y[Aib]QGTFCSDYSKYLDERRAKEFVQWLMNT; bridge 16-20) [SEQ ID NO: 38, glucagon derivative, X = Aib] ; In vitro Activity (Relative Activity of SEQ ID NO: 1, %) = 167.3

Form: substance = YXQGTFTSDYSKYLDEKCAKEFVQWLMNT [SEQ ID NO: 21] (Y[Aib]QGTFTSDYSKYLDEKCAKEFVQWLMNT; bridge 16-20) [glucagon derivative, X = Aib] ; In vitro Activity (Relative Activity of SEQ ID NO: 1, %) = 57.8

Form: substance = YXQGTFTSDYSKYLDECRAKEFVQWLMNT (Y[Aib]QGTFTSDYSKYLDECRAKEFVQWLMNT; bridge 16-20) [SEQ ID NO: 20, glucagon derivative, X = Aib] ; In vitro Activity (Relative Activity of SEQ ID NO: 1, %) = 299.7

Form: substance = -SQGTFTSDYSKYLDECRAKEFVQWLMNT (bridge 15-19; also: name begins with '-': N-terminal residue before chain not given here) [SEQ ID NO: 32, glucagon derivative, no residue at position 1] ; In vitro Activity (Relative Activity of SEQ ID NO: 1, %) = 0.7

Form: substance = YXQGTFVSDYSKYLDECRAKDFVQWLMNT (Y[Aib]QGTFVSDYSKYLDECRAKDFVQWLMNT; bridge 16-20) [SEQ ID NO: 27, glucagon derivative, X = Aib] ; In vitro Activity (Relative Activity of SEQ ID NO: 1, %) = 93.6

Form: substance = YXQGTFTSDYSKYLDEKRCKEFVQWLMNT (Y[Aib]QGTFTSDYSKYLDEKRCKEFVQWLMNT; bridge 16-20) [SEQ ID NO: 22, glucagon derivative, X = Aib] ; In vitro Activity (Relative Activity of SEQ ID NO: 1, %) = 147.8
